# system-under-test: T1, human recombinant soluble ACE2 (human, UniProt Q9BYF1 18-740)
# T1 construct: also called hrsACE2
# T1 sequence (Q9BYF1 18-740 limits assumed): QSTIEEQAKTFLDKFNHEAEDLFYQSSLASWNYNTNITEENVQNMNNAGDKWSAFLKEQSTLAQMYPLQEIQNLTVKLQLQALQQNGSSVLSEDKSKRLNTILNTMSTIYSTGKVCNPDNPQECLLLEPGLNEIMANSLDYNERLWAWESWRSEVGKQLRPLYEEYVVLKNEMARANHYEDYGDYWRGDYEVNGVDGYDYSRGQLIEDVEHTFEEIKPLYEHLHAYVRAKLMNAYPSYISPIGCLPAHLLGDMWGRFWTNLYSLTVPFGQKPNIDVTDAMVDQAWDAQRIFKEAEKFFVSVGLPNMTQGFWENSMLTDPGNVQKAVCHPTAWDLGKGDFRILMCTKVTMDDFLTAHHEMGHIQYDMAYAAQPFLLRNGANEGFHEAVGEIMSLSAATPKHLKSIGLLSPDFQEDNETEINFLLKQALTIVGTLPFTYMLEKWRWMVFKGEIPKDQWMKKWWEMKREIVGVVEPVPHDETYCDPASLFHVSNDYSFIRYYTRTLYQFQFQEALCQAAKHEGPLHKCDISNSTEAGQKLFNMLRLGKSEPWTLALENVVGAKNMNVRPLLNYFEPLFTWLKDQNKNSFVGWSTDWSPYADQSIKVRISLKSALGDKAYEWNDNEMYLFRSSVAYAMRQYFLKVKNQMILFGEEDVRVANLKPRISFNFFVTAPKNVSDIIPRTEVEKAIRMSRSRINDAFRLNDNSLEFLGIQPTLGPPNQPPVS
# procedure-details: ELISA screen
assay-readout: Mean normalized OD (OD)

| binder | assay-readout | result-value |
| --- | --- | --- |
| Pkd1 CRD-mouse IgG2a-Fc fusion protein (Fc fusion) GNGHCYRLVAEKAPWLQAQEQCRTWAGAALAMVDSPAIQHFLVSKVTRSLDVWIGFSSVEGTEGLDPRGEAFSLESCQNWLPGEPHPATAEHCVRLGPAGQCNTDLCSAPHSYVCEGGGSGGGSGGGS | Mean normalized OD | -0.01 |
| Clec11a CRD-mouse IgG2a-Fc fusion protein (Fc fusion) LGHKCFLLSRDFETQAAAQARCKARGGSLAQPADRQQMDALSRYLRAALAPYNWPVWLGVHDRRSEGLYLFENGQRVSFFAWHRAFSLESGAQPSAATHPLSPDQPNGGVLENCVAQASDDGSWWDHDCERRLYFVCEGGGSGGGSGGGS | Mean normalized OD | 0.17 |
| Mrc1_5 CRD-mouse IgG2a-Fc fusion protein (Fc fusion) YKDYQYYFSKEKETMDNARAFCKKNFGDLATIKSESEKKFLWKYINKNGGQSPYFIGMLISMDKKFIWMDGSKVDFVAWATGEPNFANDDENCVTMYTNSGFWNDINCGYPNNFICQGGGSGGGSGGGS | Mean normalized OD | -0.004 |
| Mrc1_3 CRD-mouse IgG2a-Fc fusion protein (Fc fusion) HGFYCYLIGSTLSTFTDANHTCTNEKAYLTTVEDRYEQAFLTSLVGLRPEKYFWTGLSDVQNKGTFRWTVDEQVQFTHWNADMPGRKAGCVAMKTGVAGGLWDVLSCEEKAKFVCKGGGSGGGSGGGS | Mean normalized OD | -0.064 |
